experimental_system: HLA-A3 (Homo sapiens)
experiment_summary: Assembly assay, HLA-A3
Format: binding
recorded_metric: binding to HLA-A3, in words

• CC(C)C[C@H](NC(=O)[C@@H](N)[C@@H](C)O)C(=O)N1CCC[C@H]1C(=O)N1CCC[C@H]1C(=O)N[C@@H](C)C(=O)N[C@@H](Cc1c[nH]c2ccccc12)C(=O)N[C@@H](CCC(N)=O)C(=O)N1CCC[C@H]1C(=O)N[C@@H](CCCCN)C(=O)O = high affinity
• CC[C@H](C)[C@H](NC(=O)[C@@H](N)CCCCN)C(=O)N[C@@H](C)C(=O)N[C@@H](CCCCN)C(=O)N[C@@H](CCC(=O)O)C(=O)N[C@H](C(=O)N[C@@H](CC(N)=O)C(=O)N[C@@H](CC(N)=O)C(=O)N[C@@H](CCCCN)C(=O)O)[C@@H](C)O = high affinity

###

experimental_system: HLA-A11 (Homo sapiens, UniProt P04439, A114D/D185E/E176A/F33Y/L180Q/S129P/T187R)
experiment_summary: Assembly assay, HLA-A11
Format: binding
recorded_metric: binding to HLA-A11, in words

• CC[C@H](C)[C@H](NC(=O)[C@@H](N)CCCCN)C(=O)N[C@@H](C)C(=O)N[C@@H](CCCCN)C(=O)N[C@@H](CCC(=O)O)C(=O)N[C@H](C(=O)N[C@@H](CC(N)=O)C(=O)N[C@@H](CC(N)=O)C(=O)N[C@@H](CCCCN)C(=O)O)[C@@H](C)O = high affinity
• CC(C)C[C@H](N)C(=O)N[C@@H](C)C(=O)N[C@@H](CCC(N)=O)C(=O)N[C@@H](CS)C(=O)N[C@@H](Cc1ccccc1)C(=O)N[C@@H](Cc1ccccc1)C(=O)N[C@@H](CS)C(=O)N[C@@H](Cc1ccccc1)C(=O)N[C@@H](CCCCN)C(=O)O = high affinity
• CC(C)C[C@H](NC(=O)[C@@H](N)CC(=O)O)C(=O)N[C@@H](C)C(=O)N[C@@H](CCC(N)=O)C(=O)N[C@@H](CS)C(=O)N[C@@H](Cc1ccccc1)C(=O)N[C@@H](Cc1ccccc1)C(=O)N[C@@H](CS)C(=O)N[C@@H](Cc1ccccc1)C(=O)N[C@@H](CCCCN)C(=O)O = high affinity

###

# pEC50 per record follows
experimental_system: HLA-B7 (Homo sapiens)
experiment_summary: Assembly assay, HLA-B7
Format: binding
measurement_setup: Table 4, HLA-B7; read-out: C50
pEC50: −log10 of the molar value. No end group written: not given here.

- CPTENEPDL [Sur46-54]: < 4.00
- EPDLAQCFF [Sur51-59]: < 4.00
- TPERMAEAGF [Sur34-43]: < 4.00
- LPPAWQPFL [Sur6-14]: < 4.00

Switching to the query record.
**Q:** Please look up its pEC50: QPFLKDHRI [Sur11-19]
**A:** < 4.00

###

experimental_system: HLA-A1 (Homo sapiens, UniProt P04439, A114D/A174V/A182V/D101N/D185E/E176A/E190D/L180R/Q94H/R68K/S129P/T187R/V100A/V91M/W191G)
Construct: empty HLA molecules released upon cell lysis, from the TAP-deficient cell lines; endogenous in cells
experiment_summary: Assembly assay, HLA-A1
measurement_setup: Table 4, HLA-A1; read-out: C50
recorded_metric: EC50 (µM)

- CC(C)C[C@H](NC(=O)[C@H](CCC(=O)O)NC(=O)[C@H](CCC(=O)O)NC(=O)[C@@H](NC(=O)[C@@H](N)CCC(N)=O)[C@@H](C)O)C(=O)N[C@H](C(=O)N[C@@H](CC(C)C)C(=O)NCC(=O)N[C@@H](CCC(=O)O)C(=O)N[C@@H](Cc1ccccc1)C(=O)O)[C@@H](C)O: 2

P = CC(C)C[C@H](NC(=O)[C@H](CCC(=O)O)NC(=O)[C@H](CCC(=O)O)NC(=O)[C@H](CO)NC(=O)[C@@H](N)CCC(N)=O)C(=O)N[C@H](C(=O)N[C@@H](CC(C)C)C(=O)NCC(=O)N[C@@H](CCC(=O)O)C(=O)N[C@@H](Cc1ccccc1)C(=O)O)[C@@H](C)O
Q = CC[C@H](C)[C@H](NC(=O)[C@H](Cc1ccccc1)NC(=O)CNC(=O)[C@H](C)NC(=O)[C@H](CCC(=O)O)NC(=O)[C@H](C)NC(=O)[C@@H](N)CCSC)C(=O)N[C@@H](Cc1c[nH]cn1)C(=O)N[C@@H](Cc1ccc(O)cc1)C(=O)O
**Q:** EC50 comparison. Which is larger, P or Q ? // output: label of the selected item
**A:** P

###

experimental_system: HLA-B7 (Homo sapiens, UniProt P01889)
experiment_summary: Assembly assay, HLA-B7
Format: binding
Method: The binding affinity of synthetic peptides (Invitrogen, Carlsbad, Calif., USA) to HLA-A1, -A2, A3, or -A11 molecules metabolically labeled with [^35S]-methionine was measured in the assembly assay, as described previously (12). […] MHC heavy chain bands were quantified using the ImageGauge Phosphorimager program (FUJI photo film Co., Carrollton, Tex., USA). […] The C50 value was subsequently calculated for each peptide as the peptide concentration sufficient for half maximal stabilization. […]
No end group written: not given here.
recorded_metric: pEC50
// scale note: pEC50 = -log10(conc_M); give the bare number

* QPRAPIRPI [C6, reference compound] | 7.00

Switching to the query record.
**Q:** Please look up its pEC50: RPPIFIRRL [C7, reference compound]
**A:** 6.30

###

# EC50 per record follows
experimental_system: HLA-B7 (Homo sapiens, UniProt P01889)
experiment_summary: Assembly assay, HLA-B7
Type: binding
measurement_setup: Example 4; read-out: C50 (half maximal stabilization of HLA-B7)
No end group written: not given here.

* QPFLKDHRI [Sur11-19] | > 100 µM

Switching to the query record.
**Q:** Please look up its EC50: LPPAWQPFL [Sur6-14]
**A:** > 100 µM

###

experimental_system: HLA-A3 (Homo sapiens, UniProt P04439)
experiment_summary: Assembly assay, HLA-A3
measurement_setup: Table 4, HLA-A3; read-out: C50
recorded_metric: pEC50
// scale note: pEC50 = -log10(conc_M); give the bare number

**Q:** Please look up its pEC50: `CC[C@H](C)[C@H](NC(=O)[C@@H](N)CCCNC(=N)N)C(=O)N[C@@H](CO)C(=O)N[C@H](C(=O)N[C@@H](Cc1ccccc1)C(=O)N[C@@H](CCCCN)C(=O)N[C@@H](CC(N)=O)C(=O)N[C@@H](Cc1c[nH]c2ccccc12)C(=O)N1CCC[C@H]1C(=O)N[C@@H](CCCCN)C(=O)O)[C@@H](C)O`
**A:** 7.70

###

experimental_system: HLA-A1 (Homo sapiens, UniProt P04439, A114D/A174V/A182V/D101N/D185E/E176A/E190D/L180R/Q94H/R68K/S129P/T187R/V100A/V91M/W191G)
Construct: empty HLA molecules released upon cell lysis, from the TAP-deficient cell lines; endogenous in cells
experiment_summary: Assembly assay, HLA-A1
measurement_setup: Table 4, HLA-A1; read-out: C50
pEC50: −log10 of the molar value.
recorded_metric: pEC50

• CC(C)C[C@H](NC(=O)[C@H](CC(=O)O)NC(=O)[C@@H]1CCCN1C(=O)[C@H](CCC(=O)O)NC(=O)[C@H](CC(N)=O)NC(=O)[C@H](CCC(=O)O)NC(=O)[C@@H](NC(=O)[C@@H]1CCCN1)[C@@H](C)O)C(=O)N[C@@H](C)C(=O)N[C@@H](Cc1ccc(O)cc1)C(=O)O = 6.40

P = CC(C)C[C@H](NC(=O)[C@H](CCC(=O)O)NC(=O)[C@H](CO)NC(=O)[C@@H](N)Cc1ccccc1)C(=O)N[C@H](C(=O)N[C@@H](CC(C)C)C(=O)NCC(=O)N[C@@H](CCC(=O)O)C(=O)N[C@@H](Cc1ccccc1)C(=O)O)[C@@H](C)O
Q = CC(C)C[C@H](NC(=O)[C@H](CCC(=O)O)NC(=O)[C@@H](NC(=O)[C@@H](N)Cc1ccccc1)[C@@H](C)O)C(=O)N[C@H](C(=O)N[C@@H](CC(C)C)C(=O)NCC(=O)N[C@@H](CCC(=O)O)C(=O)N[C@@H](Cc1ccccc1)C(=O)O)[C@@H](C)O
**Q:** pEC50 comparison. Which is larger, P or Q ? // output: label of the selected item
**A:** Q
(Q: 6.00, P: 4.52)
